- Tested On: full-length beta-Catenin (Uniprot ID P35222) (Homo sapiens (Human)) (UniProt P35222)
- Assay Info: fluorescence polarization competition vs 5FAM-TCF4(10-53) on full-length beta-catenin
Starred links: 1 amine or outer side, 2 acyl side, 3 side chain; linkers in the order of their positions; H or OH if unused. Positions of bridges follow the written chain, without caps; N, C: chain ends. Non-standard residues stand in square brackets, D forms with d. Primed or numbered codes have the meaning given here. PyrS2″ = (S)-3-amino-1-((pent-4-en-1-yloxy)carbonyl)pyrrolidine-3-carboxylic acid (stapling residue), C=CCCCOC(=O)N1CC[C@@](N[*:1])(C(=O)[*:2])C1; B5(30) = 2-amino-2-(pent-4-en-1-yl)hept-6-enoic acid (2,2-bis(4-pentenyl)glycine, stitching residue), C=CCCCC(CCCC=C)(N[*:1])C(=O)[*:2]; B5(4) = 2,2-bis(4-pentenyl)glycine = 2-amino-2-(pent-4-en-1-yl)hept-6-enoic acid (stitching residue), C=CCCCC(CCCC=C)(N[*:1])C(=O)[*:2]; PyrS2 = (S)-3-amino-1-((pent-4-en-1-yloxy)carbonyl)pyrrolidine-3-carboxylic acid, C=CCCCOC(=O)N1CC[C@@](N[*:1])(C(=O)[*:2])C1; EtGA = (S)-2-amino-3-((carboxymethyl)(ethyl)amino)propanoic acid, CCN(CC(=O)[*:3])C[C@H](N[*:1])C(=O)[*:2]; Bta = N[C@@H](Cc1csc2ccccc12)C(=O)O; αAllylPro = C=CC[C@@]1(C(=O)O)CCCN1; tBuAla = CC(C)(C)C[C@H](N)C(=O)O; 3Thi = N[C@@H](Cc1ccsc1)C(=O)O
Parameter Measured: pIC50
Would you please state pIC50, meaning minus log10 of the concentration in mol/L, as a bare number?

{"Binder": "Ac-[αAllylPro]D[tBuAla][B5(30)]NTAAFR[PyrS2][3Thi][Bta]Q-NH2 (staple 1-4, 4-11; also: later-eluting HPLC isomer) [I-1883]", "Parameter Measured": "pIC50", "Value Observed": 6.05}

// next item, pIC50 requested
The binder identified as Ac-[αAllylPro]D[tBuAla][B5(4)]D[EtGA]AAFS[PyrS2″][3Thi][Bta]S-NH2 (staple 1-4, 4-11; also: later eluting HPLC staple isomer) [I-975] registered its pIC50 at 5.65
